# measured.target: Renin (Homo sapiens)
# test.name: Inhibition of human recombinant renin in presence of human plasma by competitive radioimmunoassay
# Type: cell-free
pIC50: −log10 of the molar value.
observable: pIC50

a. CNC[C@H](CC1CCCCC1)NC(=O)N1CCC[C@@H]([C@@](O)(CCCCOC)c2cccc(C(F)(F)F)c2)C1
b. CNC[C@H](CC1CCCCC1)NC(=O)N1CCC[C@@H]([C@@](O)(CCCCOC)c2cccc(F)c2)C1
c. CNC[C@H](CC1CCCCC1)NC(=O)N1CCC[C@@H]([C@@](O)(CCCCOC)c2cccc(Cl)c2F)C1
d. COCCCC[C@@](O)(c1ccccc1)[C@@H]1CCCN(C(=O)N[C@H](CN)CC2CCCCC2)C1
e. CNC[C@H](CC1CCCCC1)NC(=O)N1CCC[C@@H]([C@@](O)(CCCCOC)c2cccc(C#N)c2)C1
Rank the 5 compounds: largest pIC50 first, smallest last. Give the labels in the order specified. c, b, e, d, a

---

# test.name: Oral bioavailability in rat at 10 mg/kg
# Type: ADME, organism-based
# experimental.conditions: in vivo
observable: bioavailability (%)

Some solved cases for reference:
{"compound": "CNC[C@H](CC1CCCCC1)NC(=O)N1CCC[C@@H]([C@@](O)(CCCCOC)c2ccccc2)C1.O=C(O)/C=C/C(=O)O", "bioavailability, %": 33.6}
{"compound": "COCCCOc1cc(C[C@@H](C[C@H](N)[C@@H](O)C[C@H](C(=O)NCC(C)(C)C(N)=O)C(C)C)C(C)C)ccc1OC.COCCCOc1cc(C[C@@H](C[C@H](N)[C@@H](O)C[C@H](C(=O)NCC(C)(C)C(N)=O)C(C)C)C(C)C)ccc1OC.O=C(O)/C=C/C(=O)O [ALISKIREN FUMARATE]", "bioavailability, %": 1.2}

1. CNC[C@H](CC1CCCCC1)NC(=O)N1CCC[C@@H]([C@@](O)(CCCCOC)c2cccc(Cl)c2)C1.O=C(O)/C=C/C(=O)O
2. CCOCCCC[C@@](O)(c1ccccc1)[C@@H]1CCCN(C(=O)N[C@H](CNC)CC2CCCCC2)C1.O=C(O)/C=C/C(=O)O
Please state the entry with greater bioavailability among 1 and 2 . Indicate your choice by writing its label. 2

---

# measured.target: Voltage-gated inwardly rectifying potassium channel KCNH2 (Homo sapiens, UniProt Q12809)
# Sequence (Q12809 whole entry): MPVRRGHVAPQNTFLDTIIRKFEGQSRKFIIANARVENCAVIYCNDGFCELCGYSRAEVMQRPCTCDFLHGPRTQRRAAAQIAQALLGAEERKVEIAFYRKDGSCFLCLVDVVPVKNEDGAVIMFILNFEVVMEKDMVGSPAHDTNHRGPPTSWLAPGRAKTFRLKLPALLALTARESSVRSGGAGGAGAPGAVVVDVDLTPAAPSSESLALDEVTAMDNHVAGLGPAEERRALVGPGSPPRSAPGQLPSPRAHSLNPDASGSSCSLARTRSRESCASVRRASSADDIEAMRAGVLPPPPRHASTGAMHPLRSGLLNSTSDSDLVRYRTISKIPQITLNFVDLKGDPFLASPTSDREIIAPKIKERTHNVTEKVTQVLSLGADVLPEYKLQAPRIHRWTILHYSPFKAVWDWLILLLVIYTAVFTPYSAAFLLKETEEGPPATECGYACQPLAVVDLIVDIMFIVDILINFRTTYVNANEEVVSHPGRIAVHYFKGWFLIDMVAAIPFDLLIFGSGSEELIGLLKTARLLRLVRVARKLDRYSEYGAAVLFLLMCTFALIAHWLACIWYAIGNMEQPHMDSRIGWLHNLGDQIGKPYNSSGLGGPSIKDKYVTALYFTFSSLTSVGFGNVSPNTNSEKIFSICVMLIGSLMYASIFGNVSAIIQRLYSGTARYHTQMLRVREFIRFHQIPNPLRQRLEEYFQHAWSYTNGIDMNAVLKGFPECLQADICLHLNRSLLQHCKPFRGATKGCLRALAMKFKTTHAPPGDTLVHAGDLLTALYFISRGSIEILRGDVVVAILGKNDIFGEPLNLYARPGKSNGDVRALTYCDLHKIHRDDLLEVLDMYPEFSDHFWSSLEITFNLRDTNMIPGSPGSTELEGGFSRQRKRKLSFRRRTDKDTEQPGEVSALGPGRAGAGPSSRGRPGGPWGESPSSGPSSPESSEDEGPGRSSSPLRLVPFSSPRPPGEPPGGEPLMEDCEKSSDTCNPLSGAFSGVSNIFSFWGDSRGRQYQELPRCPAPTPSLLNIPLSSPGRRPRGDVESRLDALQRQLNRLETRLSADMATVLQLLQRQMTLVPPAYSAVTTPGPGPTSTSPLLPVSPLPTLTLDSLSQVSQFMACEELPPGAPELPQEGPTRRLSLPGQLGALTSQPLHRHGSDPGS
# test.name: Inhibition of human ERG by patch clamp assay
pIC50: −log10 of the molar value.
observable: pIC50

Field pIC50 (entry "CNC[C@H](CC1CCCCC1)NC(=O)N1CCC[C@@H]([C@@](O)(CCCCOC)c2cccc(Cl)c2)C1.O=C(O)/C=C/C(=O)O" ) reads < 4.52

---

# measured.target: UniProt:P00797
# test.name: Inhibition of human recombinant renin in presence of human plasma by competitive radioimmunoassay
# Type: cell-free
observable: IC50 (nM)

{"mol": "CNC[C@H](CC1CCCCC1)NC(=O)N1CCC[C@@H]([C@@](O)(CCCCOC)c2ccccc2)C1", "observable": "IC50", "quantitative.result": 64}

A. CCOCCCO[C@@H](c1cccc(F)c1)[C@@H]1CCCN(C(=O)N[C@H](CNC)CC2CCCCC2)C1
B. CNC[C@H](CC1CCCCC1)NC(=O)N1CCC[C@@H]([C@@](O)(CCCCO)c2cccc(Cl)c2)C1
C. CCOCCCC[C@@](O)(c1ccccc1)[C@@H]1CCCN(C(=O)N[C@H](CN)CC2CCCCC2)C1
Please list the entries, largest IC50 first. Response format: the labels, sorted as the prompt asks. C, B, A

---

# test.name: Clearance in rat at 2 mg/kg, iv
# Assay type: ADME, organism-based
# Parameters: dose 2 mg/kg, route intravenous
# experimental.conditions: in vivo
observable: clearance (mL/min/kg)

Here are 5 molecules together with their reported answers.
{"molecule": "CCOCCCC[C@@](O)(c1ccccc1)[C@@H]1CCCN(C(=O)N[C@H](CNC)CC2CCCCC2)C1.O=C(O)/C=C/C(=O)O", "clearance / mL/min/kg": 79}
{"molecule": "COCCCC[C@@](O)(c1ccccc1)[C@@H]1CCCN(C(=O)N[C@H](CN)CC2CCCCC2)C1.O=C(O)/C=C/C(=O)O", "clearance / mL/min/kg": 46}
{"molecule": "CNC[C@H](CC1CCCCC1)NC(=O)N1CCC[C@@H]([C@@](O)(CCCCOC)c2ccccc2)C1.O=C(O)/C=C/C(=O)O", "clearance / mL/min/kg": 66}
{"molecule": "CCOCCCO[C@@H](c1ccccc1)[C@@H]1CCCN(C(=O)N[C@H](CNC)CC2CCCCC2)C1.O=C(O)/C=C/C(=O)O", "clearance / mL/min/kg": 59}
{"molecule": "CNC[C@H](CC1CCCCC1)NC(=O)N1CCC[C@@H]([C@@](O)(CCCCOC)c2cccc(Cl)c2)C1.O=C(O)/C=C/C(=O)O", "clearance / mL/min/kg": 33}

A. CNC[C@H](CC1CCCCC1)NC(=O)N1CCC[C@@H]([C@@](O)(CCCCOC)c2cccc(Cl)c2F)C1.O=C(O)/C=C/C(=O)O
B. CNC[C@H](CC1CCCCC1)NC(=O)N1CCC[C@@H]([C@@](O)(CCCCOC)c2cccc(F)c2)C1.O=C(O)/C=C/C(=O)O
Endpoint returns the identifier whose clearance is numerically larger, either A or B . To answer, give the label that identifies your chosen option. B

---

# test.name: Tmax in rat at 10 mg/kg, po and 2 mg/kg, iv
# Assay type: ADME, organism-based
# experimental.conditions: in vivo
observable: Tmax (h)

a. CNC[C@H](CC1CCCCC1)NC(=O)N1CCC[C@@H]([C@@](O)(CCCCOC)c2ccccc2)C1.O=C(O)/C=C/C(=O)O
b. CCOCCCC[C@@](O)(c1ccccc1)[C@@H]1CCCN(C(=O)N[C@H](CNC)CC2CCCCC2)C1.O=C(O)/C=C/C(=O)O
// max by Tmax over [ a , b ] Refer to your chosen item by its label in the answer. b

a. CNC[C@H](CC1CCCCC1)NC(=O)N1CCC[C@@H]([C@@](O)(CCCCOC)c2cccc(Cl)c2)C1.O=C(O)/C=C/C(=O)O
b. COCCCC[C@@](O)(c1ccccc1)[C@@H]1CCCN(C(=O)N[C@H](CN)CC2CCCCC2)C1.O=C(O)/C=C/C(=O)O
Could you point out whether the larger Tmax belongs to a or to b ? Give the label of your selection. a

P. CCOCCCO[C@@H](c1ccccc1)[C@@H]1CCCN(C(=O)N[C@H](CNC)CC2CCCCC2)C1.O=C(O)/C=C/C(=O)O
Q. CNC[C@H](CC1CCCCC1)NC(=O)N1CCC[C@@H]([C@@](O)(CCCCOC)c2cccc(Cl)c2F)C1.O=C(O)/C=C/C(=O)O
Input pair: P , Q . Output: entry with lower Tmax. Identify your selection by its label. P

---

# measured.target: Renin (Homo sapiens, UniProt P00797)
# Sequence (P00797 whole entry): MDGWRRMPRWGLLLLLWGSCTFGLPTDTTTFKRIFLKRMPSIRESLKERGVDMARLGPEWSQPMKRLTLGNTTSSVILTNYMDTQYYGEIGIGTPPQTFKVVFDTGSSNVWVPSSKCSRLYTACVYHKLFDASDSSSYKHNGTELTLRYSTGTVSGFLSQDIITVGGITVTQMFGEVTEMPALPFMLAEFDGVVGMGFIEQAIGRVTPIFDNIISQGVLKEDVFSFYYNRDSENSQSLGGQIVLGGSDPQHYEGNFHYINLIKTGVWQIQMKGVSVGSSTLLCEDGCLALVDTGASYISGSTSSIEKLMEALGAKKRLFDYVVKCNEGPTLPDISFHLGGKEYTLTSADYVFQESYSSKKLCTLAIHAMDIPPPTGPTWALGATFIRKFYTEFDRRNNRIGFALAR
# test.name: Inhibition of human recombinant renin
observable: IC50 (nM)

{"mol": "COCCCC[C@@](O)(c1cccc(Cl)c1)[C@@H]1CCCN(C(=O)N[C@H](CNCC(F)(F)F)CC2CCCCC2)C1", "IC50, nM": 46}

I. CNC[C@H](CC1CCCCC1)NC(=O)N1CCC[C@@H]([C@@H](OCCCOC)c2cccc(Cl)c2F)C1
II. CNC[C@H](CC1CCCCC1)NC(=O)N1CCC[C@@H]([C@@](O)(CCCCOC)c2cccc(F)c2)C1
III. CNC[C@H](CC1CCCCC1)NC(=O)N1CCC[C@@H]([C@@](O)(CCCCOC)c2cccc(OC)c2)C1
IV. CCc1cccc([C@](O)(CCCCOC)[C@@H]2CCCN(C(=O)N[C@H](CNC)CC3CCCCC3)C2)c1
V. CNC[C@H](CC1CCCCC1)NC(=O)N1CCC[C@@H]([C@@](O)(CCCCO)c2cccc(Cl)c2)C1
Endpoint returns the given compounds ordered by ascending IC50. A ranking is expressed here by listing the labels in the requested order. II, IV, III, V, I
